Data provenance: patent US20240117038A1

Biological target: T1, human CX3CR1 (human, UniProt P49238 1-355)
T1 construct: Overexpressed on CHO K1, Ba/F3 or HEK293T cells; also called huCX3CR1; hCX3CR1
T1 sequence: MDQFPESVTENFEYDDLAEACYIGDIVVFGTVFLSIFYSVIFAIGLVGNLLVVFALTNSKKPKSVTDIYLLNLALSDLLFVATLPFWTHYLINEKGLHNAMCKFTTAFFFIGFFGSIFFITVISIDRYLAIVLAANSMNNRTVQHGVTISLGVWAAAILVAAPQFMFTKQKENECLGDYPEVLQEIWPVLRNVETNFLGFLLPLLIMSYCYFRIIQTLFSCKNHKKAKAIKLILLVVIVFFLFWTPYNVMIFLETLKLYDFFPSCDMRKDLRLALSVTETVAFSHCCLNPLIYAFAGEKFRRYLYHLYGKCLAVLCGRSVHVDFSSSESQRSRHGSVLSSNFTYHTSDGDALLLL
Assay: flow cytometry on CHO K1 huCX3CR1 cells, 30 uM HSA
Metric name: EC50 (nM)
Numbers only, in nM.

Per the record, A041600010 (VHH, Trivalent ISVD construct (two anti-CX3CR1 ISVDs, one anti-albumin ISVD); also called 66B02_SO (E1D)-9GS-ALB23002-9GS-66B02_SO-A) DVQLVESGGGSVQPGGSLRLSCAASGSIFSSTAMAWYRQAPGKRRDLVAAINTVGVTKYADSVKGRFTISRDNAKNTVYLQMNSLRPEDTALYYCTSDPRRGWDTRYWGQGTLVTVSSGGGGSGGGSEVQLVESGGGVVQPGGSLRLSCAASGFTFRSFGMSWVRQAPGKGPEWVSSISGSGSDTLYADSVKGRFTISRDNSKNTLYLQMNSLRPEDTALYYCTIGGSLSRSSQGTLVTVSSGGGGSGGGSEVQLVESGGGSVQPGGSLRLSCAASGSIFSSTAMAWYRQAPGKRRDLVAAINTVGVTKYADSVKGRFTISRDNAKNTVYLQMNSLRPEDTALYYCTSDPRRGWDTRYWGQGTLVTVSSA has EC50 of 0.41
